Below, each of the compounds is paired with its reported ΔTm value.
Target: Replicase polyprotein 1ab (Severe acute respiratory syndrome coronavirus 2) (UniProt P0DTD1)
Assay overview: Binding affinity to SARS-CoV-2 main protease assessed as change in melting temperature by DSF assay
Record the value in °C, omitting the unit from your answer.

| Compound | Unit label | ΔTm |
| --- | --- | --- |
| CC1CC(=O)C2=C(C1)Nc1cc([N+](=O)[O-])ccc1N(C(=O)CCl)C2C1CCCC1 (stereo not drawn) | °C | 3.01 |
| CC1CC(=O)C2=C(C1)Nc1cc([N+](=O)[O-])ccc1N(C(=O)CCl)C2C1CCC1 (stereo not drawn) | °C | 2.74 |
| CC1CC(=O)C2=C(C1)Nc1cc([N+](=O)[O-])ccc1N(C(=O)CCl)C2c1ccc(OC(F)(F)F)cc1 (stereo not drawn) | °C | 0.13 |
| CC1C2=C(CC(C)(C)CC2=O)Nc2cc([N+](=O)[O-])ccc2N1C(=O)CCl (stereo not drawn) | °C | 1.32 |
| CC1(C)CC(=O)C2=C(C1)Nc1cc([N+](=O)[O-])ccc1N(C(=O)CCl)C2C1CCCCC1 (stereo not drawn) | °C | 4.64 |

For the next question, use this compound.
Given the entry CC1CC(=O)C2=C(C1)Nc1cc([N+](=O)[O-])ccc1N(C(=O)CCl)C2C1CCCCC1 (stereo not drawn) , report its measured ΔTm.
2.57

---

Dear all, this message contains IC50 results, target or system UniProt P0DTD1.
Express the result in µM but write the number alone.

Before answering, review these 2 worked examples.
| Molecule | Quantitative result |
| --- | --- |
| O=C1CCCC2=C1C(C1CCCC1)N(C(=O)CCl)c1ccc([N+](=O)[O-])cc1N2 (stereo not drawn) | 1.92 |
| COc1ccc(C2C3=C(CC(C)(C)CC3=O)Nc3cc([N+](=O)[O-])ccc3N2C(=O)CCl)cc1 (stereo not drawn) | 4.52 |

Now consider the entry below.
Field: IC50 (UniProt P0DTD1). Entry: CC1(C)CC(=O)C2=C(C1)Nc1cc([N+](=O)[O-])ccc1N(C(=O)CCl)C2C1CC1 (stereo not drawn)
13.3

---

Target: UniProt P0DTD1
Assay overview: Binding affinity to SARS-CoV-2 main protease assessed as change in melting temperature by DSF assay
Entry flag: yes (1) if ΔTm reaches 4 °C; no (0) if it does not.

Consider the worked cases shown below.
| Molecule | Group label |
| --- | --- |
| CC1CC(=O)C2=C(C1)Nc1cc([N+](=O)[O-])ccc1N(C(=O)CCl)C2c1ccccc1 (configuration not stated) | no (0) |
| Cc1ccc(C2C3=C(CCCC3=O)Nc3cc([N+](=O)[O-])ccc3N2C(=O)CCl)cc1 (configuration not stated) | yes (1) |
| N#Cc1ccc2c(c1)NC1=C(C(=O)CCC1)C(c1ccc(C(F)(F)F)cc1)N2C(=O)CCl (configuration not stated) | yes (1) |
| CC1(C)CC(=O)C2=C(C1)Nc1cc([N+](=O)[O-])ccc1N(C(=O)CCl)C2c1ccccc1 (configuration not stated) | yes (1) |
| CC1(C)CC(=O)C2=C(C1)Nc1cc([N+](=O)[O-])ccc1N(C(=O)CCl)C2C1CC1 (configuration not stated) | no (0) |
| CC1(C)CC(=O)C2=C(C1)Nc1cc([N+](=O)[O-])ccc1N(C(=O)CCl)C2C1CCCC1 (configuration not stated) | no (0) |

State whether the measured ΔTm reaches 4 °C, counting equality as reaching it, for CC1CC(=O)C2=C(C1)Nc1cc([N+](=O)[O-])ccc1N(C(=O)CCl)C2c1ccc(F)cc1F (configuration not stated)
no (0)

Please tell me: is the molecule COc1ccc(C2C3=C(CCCC3=O)Nc3cc([N+](=O)[O-])ccc3N2C(=O)CCl)cc1 (configuration not stated) at or over 4 °C in terms of ΔTm?
yes (1)

Dear colleague, could you confirm whether CC1CC(=O)C2=C(C1)Nc1cc([N+](=O)[O-])ccc1N(C(=O)CCl)C2C (configuration not stated) has ΔTm at or above 4 °C?
no (0)

Dear colleague, could you confirm whether Cc1ccc(C2C3=C(CC(C)CC3=O)Nc3cc([N+](=O)[O-])ccc3N2C(=O)CCl)cc1 (configuration not stated) has ΔTm at or above 4 °C?
no (0)

Is the recorded value of ΔTm equal to or greater than 4 °C for this molecule? O=C1CCCC2=C1C(c1ccc(C(F)(F)F)cc1)N(C(=O)CCl)c1ccc([N+](=O)[O-])cc1N2 (configuration not stated)
yes (1)

Has O=C1CCCC2=C1C(C1CCCCC1)N(C(=O)CCl)c1ccc([N+](=O)[O-])cc1N2 (configuration not stated) a recorded ΔTm greater than or equal to 4 °C?
yes (1)
